assayTarget: K-Ras G12C (Homo sapiens (Human), UniProt P01116+P62937, G12C)
Sequence (P01116-2 other isoform, or with tags, fused parts or gaps G12C): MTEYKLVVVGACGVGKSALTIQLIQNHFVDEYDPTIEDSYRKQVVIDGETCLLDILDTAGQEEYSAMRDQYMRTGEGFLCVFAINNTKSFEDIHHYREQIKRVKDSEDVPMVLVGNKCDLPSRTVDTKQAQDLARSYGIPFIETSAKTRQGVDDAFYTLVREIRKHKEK
Sequence (P62937 whole entry): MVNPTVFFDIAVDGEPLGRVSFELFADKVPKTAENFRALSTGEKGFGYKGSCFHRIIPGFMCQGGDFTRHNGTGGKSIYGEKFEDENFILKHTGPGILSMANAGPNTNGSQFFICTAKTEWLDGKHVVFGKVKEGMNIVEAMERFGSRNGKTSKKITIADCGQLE
experiment: Ras-Raf (BRAF RBD) disruption / FRET / MOA assay, KRAS G12C
Assay type: biochemical
testParameters: KRAS G12C; Ras-Raf disruption/FRET/MOA assay; read-out: IC50* KRAS G12C FRET data
Reported IC50 values for a set of molecules

Known IC50 results, listed for orientation:
{"columns": ["molecule", "IC50"],
 "data": [
  ["C=CC(=O)N1CC(OC[C@H](C(=O)N[C@H]2Cc3cccc(c3)-c3ccc4c(c3)c(c(-c3cccnc3[C@H](C)OC)n4CC(F)(F)F)CC(C)(C)COC(=O)[C@@H]3CCCN(N3)C2=O)C(C)C)C1 (atropisomer, axis not shown)", "0.01 to 0.1 µM"],
  ["C=CC(=O)N1C[C@H](F)[C@](F)(C(=O)N(C)[C@H](C(=O)N[C@H]2Cc3cccc(c3)-c3ccc4c(c3)c(c(-c3cccnc3[C@H](C)OC)n4CC)CC(C)(C)COC(=O)[C@@H]3CCCN(N3)C2=O)C(C)C)C1 (atropisomer, axis not shown)", "0.01 to 0.1 µM"],
  ["CC#CC(=O)N1CC[C@H](C(=O)N(C)[C@H](C(=O)N[C@H]2Cc3cccc(c3)-c3ccc4c(c3)c(c(-c3cccnc3[C@H](C)OC)n4CC)CC(C)(C)COC(=O)[C@@H]3CCCN(N3)C2=O)C2CCCC2)C1 (atropisomer, axis not shown)", "0.1 to 1 µM"],
  ["C=CC(=O)N1CC[C@H](C(=O)N2CC[C@H](C)[C@H]2C(=O)N[C@H]2Cc3cccc(c3)-c3ccc4c(c3)c(c(-c3cccnc3[C@H](C)OC)n4CC)CC(C)(C)COC(=O)[C@@H]3CCCN(N3)C2=O)C1 (atropisomer, axis not shown)", "0.1 to 1 µM"],
  ["CCn1c(-c2cccnc2)c2c3cc(ccc31)-c1csc(c1)C[C@H](NC(=O)[C@H](C(C)C)N(C)C(=O)[C@H]1CCN(C(=O)C#CCN3CCOCC3)C1)C(=O)N1CCC[C@H](N1)C(=O)OCC(C)(C)C2", "0.1 to 1 µM"],
  ["C=CC(=O)N1CC[C@H](C(=O)N(C)[C@H](C(=O)N[C@H]2CC3=NN=C(S3)c3ccc4c(c3)c(c(-c3cccnc3[C@H](C)OC)n4CC)CC(C)(C)COC(=O)[C@@H]3CCCN(N3)C2=O)C(C)C)C1 (atropisomer, axis not shown)", "1 to 10 µM"]
]}

Query: IC50 lookup needed for C=CC(=O)N1CC[C@H](C(=O)N(C)[C@H](C(=O)N[C@H]2Cc3cccc(c3)-c3ccc4c(c3)c(c(-c3cc5c(nc3[C@H](C)OC)CCN(C)C5)n4CC)CC(C)(C)COC(=O)[C@@H]3CCCN(N3)C2=O)C(C)C)C1 (atropisomer, axis not shown) , thanks.
Result: 0.1 to 1 µM

Query: IC50 lookup needed for CCn1c(-c2cccnc2[C@H](C)OC)c2c3cc(ccc31)-c1cccc(c1)C[C@H](NC(=O)[C@H](C(C)C)N1CC[C@@]3(CCN(C(=O)C#CC(C)(C)N(C)C)C3)C1=O)C(=O)N1CCC[C@H](N1)C(=O)OCC(C)(C)C2 (atropisomer, axis not shown) , thanks.
Result: < 0.01 µM
